Documented Acceptor Concentration across a set of compounds
# Tested on: PAMPA
# protocol-conditions: Acceptor Concentration (uM) – ELSD Detection / [row 1]
Dear colleague, please return just the value in µM, with no unit written.

compound: CCCCC[C@@H]1OC(=O)[C@@H](C)N(C)C(=O)[C@H](CCCCC)OC(=O)[C@@H](C)N(C)C(=O)[C@H](CCCCC)OC(=O)[C@@H](C)N(C)C(=O)[C@H](CCCCC)OC(=O)[C@@H](C)N(C)C1=O [Compound C1.4, ent-verticilide]
system: PAMPA
unit-annotation: µM
Acceptor Concentration: 122

I would be grateful if you could share the reported Acceptor Concentration for CCCCC[C@@H]1OC(=O)[C@@H](C)N(C)C(=O)[C@H](CCCCC)OC(=O)[C@@H](C)N(C)C(=O)[C@H](CCCCC)OC(=O)[C@@H](C)N(C)C1=O [Compound C1.3, ent-verticilide B1] .
102

I would be grateful if you could share the reported Acceptor Concentration for CCCCC[C@@H]1OC(=O)[C@@H](C)N(C)C(=O)[C@H](CCCCC)OC(=O)[C@@H](C)N(C)C(=O)[C@H](CCCCC)OC(=O)[C@@H](C)N(C)C(=O)[C@H](CCCCC)OC(=O)[C@@H](C)N(C)C(=O)[C@H](CCCCC)OC(=O)[C@@H](C)N(C)C1=O .
67.5

I would be grateful if you could share the reported Acceptor Concentration for CCCCC[C@@H]1OC(=O)[C@@H](C)N(C)C(=O)[C@H](CCCCC)OC(=O)[C@@H](C)N(C)C(=O)[C@H](CCCCC)OC(=O)[C@@H](C)N(C)C(=O)[C@H](CCCCC)OC(=O)[C@@H](C)N(C)C(=O)[C@H](CCCCC)OC(=O)[C@@H](C)N(C)C(=O)[C@H](CCCCC)OC(=O)[C@@H](C)N(C)C1=O .
27.2

====

Documented Acceptor Concentration across a set of molecules
# Test system: PAMPA
# protocol-conditions: Acceptor Concentration (uM) – ELSD Detection / [row 10]
Dear colleague, please return just the value in µM, with no unit written.

molecule: CCCCC[C@@H]1OC(=O)[C@@H](C)N(C)C(=O)[C@H](CCCCC)OC(=O)[C@@H](C)N(C)C(=O)[C@H](CCCCC)OC(=O)[C@@H](C)N(C)C1=O [Compound C1.3, ent-verticilide B1]
Acceptor Concentration / µM: 101
--
molecule: CCCCC[C@@H]1OC(=O)[C@@H](C)N(C)C(=O)[C@H](CCCCC)OC(=O)[C@@H](C)N(C)C(=O)[C@H](CCCCC)OC(=O)[C@@H](C)N(C)C(=O)[C@H](CCCCC)OC(=O)[C@@H](C)N(C)C1=O [Compound C1.4, ent-verticilide]
Acceptor Concentration / µM: 92.1
--
molecule: CCCCC[C@@H]1OC(=O)[C@@H](C)N(C)C(=O)[C@H](CCCCC)OC(=O)[C@@H](C)N(C)C(=O)[C@H](CCCCC)OC(=O)[C@@H](C)N(C)C(=O)[C@H](CCCCC)OC(=O)[C@@H](C)N(C)C(=O)[C@H](CCCCC)OC(=O)[C@@H](C)N(C)C1=O
Acceptor Concentration / µM: 66.1

Next:
I would be grateful if you could share the reported Acceptor Concentration for CCCCC[C@@H]1OC(=O)[C@@H](C)N(C)C(=O)[C@H](CCCCC)OC(=O)[C@@H](C)N(C)C(=O)[C@H](CCCCC)OC(=O)[C@@H](C)N(C)C(=O)[C@H](CCCCC)OC(=O)[C@@H](C)N(C)C(=O)[C@H](CCCCC)OC(=O)[C@@H](C)N(C)C(=O)[C@H](CCCCC)OC(=O)[C@@H](C)N(C)C1=O .
46.7

====

Documented Papp across a set of compounds
# System: PAMPA
# protocol-conditions: Papp (x 10^-6 cm/s) – ELSD Detection / [row 1]; ELSD Detection
# output: number + unit

Examples from the recorded data:
compound: CCCCC[C@@H]1OC(=O)[C@@H](C)N(C)C1=O
system: PAMPA
data-value: 14.3 ×10⁻⁶ cm/s
--
compound: CCCCC[C@@H]1OC(=O)[C@@H](C)N(C)C(=O)[C@H](CCCCC)OC(=O)[C@@H](C)N(C)C(=O)[C@H](CCCCC)OC(=O)[C@@H](C)N(C)C1=O [Compound C1.3, ent-verticilide B1]
system: PAMPA
data-value: 4.16 ×10⁻⁶ cm/s
--
compound: CCCCC[C@@H]1OC(=O)[C@@H](C)N(C)C(=O)[C@H](CCCCC)OC(=O)[C@@H](C)N(C)C(=O)[C@H](CCCCC)OC(=O)[C@@H](C)N(C)C(=O)[C@H](CCCCC)OC(=O)[C@@H](C)N(C)C1=O [Compound C1.4, ent-verticilide]
system: PAMPA
data-value: 7.05 ×10⁻⁶ cm/s

I would be grateful if you could share the reported Papp for CCCCC[C@@H]1OC(=O)[C@@H](C)N(C)C(=O)[C@H](CCCCC)OC(=O)[C@@H](C)N(C)C1=O .
4.36 ×10⁻⁶ cm/s

====

# Test system: PAMPA
# protocol-conditions: Acceptor Concentration (uM) / experiment 1; UV detection; initial concentration 500 uM
Class yes (1): Acceptor Concentration at least 70 µM. Class no (0): Acceptor Concentration below 70 µM.

Consider the worked cases shown below.
compound: CCCCC[C@H](OC(=O)[C@@H](C)N(C)C(=O)[C@H](CCCCC)OC(=O)[C@@H](C)N(C)C(=O)[C@H](CCCCC)OC(=O)[C@@H](C)N(C)C(=O)[C@H](CCCCC)OC(=O)[C@@H](C)N(C)C(=O)OC(C)(C)C)C(=O)OCc1ccccc1 [Compound L1.4]
discrete-label: no (0)

compound: CCCCC[C@H](OC(=O)[C@@H](C)N(C)C(=O)OC(C)(C)C)C(=O)OCc1ccccc1 [Compound L1.1]
discrete-label: yes (1)

compound: CCCCC[C@H](OC(=O)[C@@H](C)N(C)C(=O)[C@H](CCCCC)OC(=O)[C@@H](C)N(C)C(=O)[C@H](CCCCC)OC(=O)[C@@H](C)N(C)C(=O)OC(C)(C)C)C(=O)OCc1ccccc1 [Compound L1.3]
discrete-label: yes (1)

Please turn your attention to the following entry.
Threshold query (Acceptor Concentration >= 70 µM) on CCCCC[C@H](OC(=O)[C@@H](C)N(C)C(=O)[C@H](CCCCC)OC(=O)[C@@H](C)N(C)C(=O)[C@H](CCCCC)OC(=O)[C@@H](C)N(C)C(=O)[C@H](CCCCC)OC(=O)[C@@H](C)N(C)C(=O)[C@H](CCCCC)OC(=O)[C@@H](C)N(C)C(=O)OC(C)(C)C)C(=O)OCc1ccccc1 [Compound L1.5]
no (0)

====

Documented % recovery across a set of compounds
# protocol-conditions: Well 3 / %R; Well 3; UV detection
Starred links: 1 amine or outer side, 2 acyl side, 3 side chain; linkers in the order of their positions; H or OH if unused. Non-standard residues stand in square brackets, D forms with d. Residues, ends and D or L forms follow the SMILES beside them. *: point of attachment. X2 = CCCCC[C@H](O*)C(=O)OCc1ccccc1; X1 = CCCCC[C@H](O[*:1])C(=O)[*:2]; Ahp(2) = CCCCC[C@H](N)C(=O)O; dNMeA = CN[C@H](C)C(=O)O; Boc = CC(C)(C)OC(=O)*; OBn = c1ccc(CO*)cc1
Dear colleague, please return just the value in %, with no unit written.

Examples from the recorded data:
compound: CCCCC[C@H](NC(=O)[C@@H](C)N(C)C(=O)[C@H](CCCCC)NC(=O)[C@@H](C)N(C)C(=O)[C@H](CCCCC)NC(=O)[C@@H](C)N(C)C(=O)[C@H](CCCCC)OC(=O)[C@@H](C)NC)C(=O)OCc1ccccc1 (H-[dNMeA][X1][dNMeA][Ahp(2)][dNMeA][Ahp(2)][dNMeA][Ahp(2)]-OBn)
unit-annotation: %
% recovery: 90
//
compound: CCCCC[C@H](NC(=O)[C@@H](C)N(C)C(=O)OC(C)(C)C)C(=O)N(C)[C@H](C)C(=O)N[C@H](CCCCC)C(=O)N(C)[C@H](C)C(=O)O[C@@H](CCCCC)C(=O)N(C)[C@H](C)C(=O)O[C@@H](CCCCC)C(=O)OCc1ccccc1 (stereo in doubt)
unit-annotation: %
% recovery: 91

I would be grateful if you could share the reported % recovery for CCCCC[C@H](NC(=O)[C@@H](C)N(C)C(=O)OC(C)(C)C)C(=O)N(C)[C@H](C)C(=O)O[C@@H](CCCCC)C(=O)N(C)[C@H](C)C(=O)O[C@@H](CCCCC)C(=O)N(C)[C@H](C)C(=O)O[C@@H](CCCCC)C(=O)OCc1ccccc1 [Compound L2.1] (Boc-[dNMeA][Ahp(2)][dNMeA][X1][dNMeA][X1][dNMeA]-X2) .
96

====

# Test system: PAMPA
# protocol-conditions: Acceptor Concentration (uM) / [row 7]; UV detection; initial concentration 500 uM
Starred links: 1 amine or outer side, 2 acyl side, 3 side chain; linkers in the order of their positions; H or OH if unused. Non-standard residues stand in square brackets, D forms with d. Residues, ends and D or L forms follow the SMILES beside them. *: point of attachment. X2 = CCCCC[C@H](O*)C(=O)OCc1ccccc1; X1 = CCCCC[C@H](O[*:1])C(=O)[*:2]; Ahp(2) = CCCCC[C@H](N)C(=O)O; dNMeA = CN[C@H](C)C(=O)O; Boc = CC(C)(C)OC(=O)*; OBn = c1ccc(CO*)cc1
readout-type: Acceptor Concentration (µM)
Dear colleague, please return just the value in µM, with no unit written.

Examples from the recorded data:
compound: CCCCC[C@H](NC(=O)[C@@H](C)N(C)C(=O)OC(C)(C)C)C(=O)N(C)[C@H](C)C(=O)O[C@@H](CCCCC)C(=O)N(C)[C@H](C)C(=O)O[C@@H](CCCCC)C(=O)N(C)[C@H](C)C(=O)O[C@@H](CCCCC)C(=O)OCc1ccccc1 [Compound L2.1] (Boc-[dNMeA][Ahp(2)][dNMeA][X1][dNMeA][X1][dNMeA]-X2)
Acceptor Concentration (µM): 74.6
//
compound: CCCCC[C@H](NC(=O)[C@@H](C)N(C)C(=O)[C@H](CCCCC)OC(=O)[C@@H](C)N(C)C(=O)[C@H](CCCCC)NC(=O)[C@@H](C)N(C)C(=O)[C@H](CCCCC)OC(=O)[C@@H](C)N(C)C(=O)OC(C)(C)C)C(=O)OCc1ccccc1 [Compound L2.3] (Boc-[dNMeA][X1][dNMeA][Ahp(2)][dNMeA][X1][dNMeA][Ahp(2)]-OBn)
Acceptor Concentration (µM): 69.7

Next:
I would be grateful if you could share the reported Acceptor Concentration for CCCCC[C@H](NC(=O)[C@@H](C)N(C)C(=O)[C@H](CCCCC)NC(=O)[C@@H](C)N(C)C(=O)[C@H](CCCCC)NC(=O)[C@@H](C)N(C)C(=O)[C@H](CCCCC)NC(=O)[C@@H](C)N(C)C(=O)OC(C)(C)C)C(=O)OCc1ccccc1 [Compound L2.5] (Boc-[dNMeA][Ahp(2)][dNMeA][Ahp(2)][dNMeA][Ahp(2)][dNMeA][Ahp(2)]-OBn) .
57.4
